Test system: NNK/B(a)P-induced lung adenomas and adenocarcinomas
MEASUREMENT_CONTEXT: high dose (3 or 8 mmol/kg diet); preliminary
Marks after values point to notes of the source that are not given here.

| COMPOUND | Adenocarcinoma Incidence (%) |
| --- | --- |
| S=C=NCCc1ccccc1 [PEITC, phenethyl isothiocyanate] | 6/32 (19%)* |
| C[S+]([O-])CCCCN=C=S (centres unmarked) [SFN, sulforaphane] | 10/32 (31.3%) |
| CC(=O)NC(CSC(=S)NCCCC[S+](C)[O-])C(=O)O (centres unmarked) [SFN-NAC, sulforaphane-NAC] | 5/31 (16.13%) |
| CC(=O)N[C@@H](CSC(=S)NCCc1ccccc1)C(=O)O [PEITC-NAC] | 5/31 (16.1%) |
| CC(=O)N[C@@H](CS)C(=O)O [NAC, N-acetyl-L-cysteine] | 4/8 (50%) |

----------
System: NNK/B(a)P-induced lung adenomas and adenocarcinomas
MEASUREMENT_CONTEXT: high dose (3 or 8 mmol/kg diet); preliminary

| COMPOUND | Adenocarcinoma Multiplicity mean ± SD |
| --- | --- |
| CC(=O)N[C@@H](CSC(=S)NCCc1ccccc1)C(=O)O | 0.52 |
| CC(=O)NC(CSC(=S)NCCCC[S+](C)[O-])C(=O)O (stereo not shown) | 0.42 |
| C[S+]([O-])CCCCN=C=S (stereo not shown) | 0.84 |
| CC(=O)N[C@@H](CS)C(=O)O | 1.10 |

These entries and their values trace back to patent US20060241178A1.
